# Assay details: PK, tissue distribution, excretion and metabolism of compound 109 in mice
# Format: in vivo
# Measurement setup: mouse, in vivo, po, 25 mg/kg
Quantity name: bioavailability (%)
Give the value, in units of %, as a plain number.

Problem: Report bioavailability for CC(C)=CCC/C(C)=C/CNCCNC1C2CC3CC(C2)CC1C3 (stereo not shown) please.
Result: 3.8

====

# Assay details: in vivo
# Set-up: species or system mice
# Measurement setup: mouse, iv, 3 mg/kg
Quantity name: clearance (mL/min/kg)
Give the value, in units of mL/min/kg, as a plain number.

Here are 2 compounds together with their reported answers.
1. CC(C)=CCC/C(C)=C/CNCCNC1C2CC3CC(C2)CC1C3 (stereo not drawn) ... 54
2. C[C@@H]1[C@H]2C[C@@H](C[C@H]1NCCNC1CCCCCCC1)C2(C)C ... 134

Now, please, on to the next compound.
Problem: Report clearance for CC1(C)C2CCC(CNCCNCC(c3ccccc3)c3ccccc3)[C@@H]1C2 (stereo partly drawn) please.
Result: 58.8

====

# Assay details: in vivo
# Set-up: species or system mice
# Measurement setup: mouse, iv, 3 mg/kg
Quantity name: AUC (ng·h/mL)
Give the value, in units of ng·h/mL, as a plain number.

Here are 2 molecules together with their reported answers.
1. CC(C)=CCC/C(C)=C/CNCCNC1C2CC3CC(C2)CC1C3 (stereo not drawn) [Compound 109] ... 1010
2. C[C@@H]1[C@H]2C[C@@H](C[C@H]1NCCNC1CCCCCCC1)C2(C)C [Compound 59] ... 384

Problem: Report AUC for CC1(C)C2CCC(CNCCNCC(c3ccccc3)c3ccccc3)[C@@H]1C2 (stereo partly drawn) [Compound 37] please.
Result: 954

====

# Tested on: H37Rv strain of Mycobacterium tuberculosis
# Assay details: microbe, parasite or virus in culture
# Assay type: cell-based
# Measurement setup: Mycobacterium tuberculosis, H37RV, Table 10, from uM and MW; read-out: MIC
Hi! Could you tag entries with MIC below 4 µg/mL as Satisfied, and those at or above as Not satisfied? Much appreciated.

# example entries with known answers
1. CC(C)=CCC/C(C)=C/CNCCNC1C2CC3CC(C2)CC1C3 (stereo not shown) ... Satisfied
2. CCC1CCCCN1CCNC/C=C(\C)CCC=C(C)C (stereo not shown) ... Satisfied
3. CC1(C)C2CCC(CNCCNCC(c3ccccc3)c3ccccc3)[C@@H]1C2 (stereo partly shown) ... Not satisfied
4. C[C@@H]1C2C[C@@H](C[C@H]1NCCNCC1CCC3C[C@@H]1C3(C)C)C2(C)C (stereo partly shown) ... Not satisfied
5. c1ccc(C2CC2NCCNC23CC4CC(CC(C4)C2)C3)cc1 (stereo not shown) ... Not satisfied

Problem: State whether 4 µg/mL exceeds MIC recorded for "COc1ccccc1CCNCCN[C@@H]1C[C@@H]2CC([C@H]1C)C2(C)C" .
Result: Satisfied

Problem: State whether 4 µg/mL exceeds MIC recorded for "C[C@@H]1[C@H]2C[C@@H](C[C@H]1NCCNC1CCCCCCC1)C2(C)C" .
Result: Not satisfied

Problem: State whether 4 µg/mL exceeds MIC recorded for CC1(C)C2CCC(CNCCNC3CCCCCCC3)[C@@H]1C2 (stereo partly shown) .
Result: Not satisfied

Problem: State whether 4 µg/mL exceeds MIC recorded for CC(CNCCC(c1ccccc1)c1ccccc1)NCC12CC3CC(CC(C3)C1)C2 (stereo not shown) .
Result: Not satisfied

====

# Test system: H37Rv strain of Mycobacterium tuberculosis
# Assay details: microbe, parasite or virus in culture
# Format: cell-based
# Measurement setup: Mycobacterium tuberculosis, H37RV; read-out: MIC
Hi! Could you tag entries with MIC below 30 µM as fulfilled, and those at or above as not fulfilled? Much appreciated.

Problem: State whether 30 µM exceeds MIC recorded for "C1CCCC(NCCNC2CCCCCCC2)CCC1" .
Result: not fulfilled

Problem: State whether 30 µM exceeds MIC recorded for COc1ccc(CCNCC(NCCc2ccc(F)cc2)c2ccccc2)cc1 (stereo not drawn) .
Result: not fulfilled

Problem: State whether 30 µM exceeds MIC recorded for "C=CCN(CCNCCc1ccccc1Cl)C1CCCC1" .
Result: not fulfilled

Problem: State whether 30 µM exceeds MIC recorded for "COc1ccc(CCNCCNCC23CC4CC(CC(C4)C2)C3)cc1OC" .
Result: not fulfilled

====

# Assay details: PK, tissue distribution, excretion and metabolism of compound 109 in mice
# Format: in vivo
# Measurement setup: mouse, in vivo, iv, 3 mg/kg; read-out: Vdss
Quantity name: Vd (L/kg)
Give the value, in units of L/kg, as a plain number.

Problem: Report Vd for CC(C)=CCC/C(C)=C/CNCCNC1C2CC3CC(C2)CC1C3 (stereo not shown) [Compound 109] please.
Result: 11.8

====

# System: H37Rv strain of Mycobacterium tuberculosis
# Assay details: microbe, parasite or virus in culture
# Format: cell-based
# Measurement setup: Mycobacterium tuberculosis, H37RV, Table 15; read-out: MIC
Quantity name: MIC (µM)
Give the value, in units of µM, as a plain number.

Here are 2 compounds together with their reported answers.
1) C[C@@H]1C2C[C@@H](C[C@H]1NCCNCC(c1ccccc1)c1ccccc1)C2(C)C [Compound 40] ... 15.6
2) C[C@@H]1[C@H]2C[C@@H](C[C@H]1NCCNC1CCCCCCC1)C2(C)C [Compound 59] ... 15.6

Problem: Report MIC for CC(CNCC(c1ccccc1)c1ccccc1)NCC1CCC2C[C@@H]1C2(C)C (stereo partly shown) [Compound 38] please.
Result: 6.25

Problem: Report MIC for CC(C)=CCC/C(C)=C/CNCCNC1C2CC3CC(C2)CC1C3 (stereo not shown) [Compound 109] please.
Result: 1.56

Problem: Report MIC for C1CCCC(NCCNC2C3CC4CC(C3)CC2C4)CCC1 (stereo not shown) [Compound 58] please.
Result: 12.5

Problem: Report MIC for CC1(C)C2CCC(CNCCNC3CCCCCCC3)[C@@H]1C2 (stereo partly shown) [Compound 57] please.
Result: 11.7

Problem: Report MIC for c1ccc2c(c1)CC(NCCNC1C3CC4CC(C3)CC1C4)C2 (stereo not shown) [Compound 78] please.
Result: 15.6

Problem: Report MIC for CC1CCCC(NCCNC[C@@H]2CCC3C[C@@H]2C3(C)C)C1C (stereo partly shown) [Compound 41] please.
Result: 3.13

Problem: Report MIC for CC1(C)C2CCC(CNCCNCC(c3ccccc3)c3ccccc3)[C@@H]1C2 (stereo partly shown) [Compound 37] please.
Result: 7.8

Problem: Report MIC for COc1ccccc1CCNCCNC1C2CC3CC(C2)CC1C3 (stereo not shown) [Compound 73] please.
Result: 12.5

Problem: Report MIC for C1CCCC(NCCNCC23CC4CC(CC(C4)C2)C3)CCC1 [Compound 55] please.
Result: 15.6

Problem: Report MIC for CCC1CCCCN1CCNC/C=C(\C)CCC=C(C)C (stereo not shown) [Compound 111] please.
Result: 7.81

Problem: Report MIC for C[C@@H]1C2C[C@@H](C[C@H]1NCCNCCC(c1ccccc1)c1ccccc1)C2(C)C [Compound 66] please.
Result: 15.6

====

# Assay details: in vitro
# Type: in vitro ADME
# Measurement setup: plasma
Quantity name: fraction unbound at 200 ng/ml
Response field accepts a number only; no unit should be typed.

Problem: Report fraction unbound at 200 ng/ml for CC(C)=CCC/C(C)=C/CNCCNC1C2CC3CC(C2)CC1C3 (stereo not shown) [Compound 109] please.
Result: 0.26

====

# Assay details: PK, tissue distribution, excretion and metabolism of compound 109 in mice
# Format: in vivo
# Measurement setup: mouse, in vivo, po, 25 mg/kg
Quantity name: AUC (µg·h/mL)
Give the value, in units of µg·h/mL, as a plain number.

Problem: Report AUC for CC(C)=CCC/C(C)=C/CNCCNC1C2CC3CC(C2)CC1C3 (stereo not shown) [Compound 109] please.
Result: 0.254

====

# Tested on: cells
# Assay details: LD50 for selectivity index (Table 10)
# Type: cell-based, Mycobacterium tuberculosis
# Measurement setup: from uM and MW
In this section we review reported LD50 values for a set of compounds.
Give the value, in units of µg/mL, as a plain number.

Here are 9 compounds together with their reported answers.
1. CC1(C)C2CCC(CNCCNCC(c3ccccc3)c3ccccc3)[C@@H]1C2 (stereo partly shown) ... 15.872
2. c1ccc(C(CNCCNCC23CC4CC(CC(C4)C2)C3)c2ccccc2)cc1 ... 16.256
3. CC(C)=CCC/C(C)=C/CNCCNC1C2CC3CC(C2)CC1C3 (stereo not shown) ... 14.4
4. c1ccc(C2CC2NCCNC23CC4CC(CC(C4)C2)C3)cc1 (stereo not shown) ... 25.8
5. CC(CNCCC(c1ccccc1)c1ccccc1)NCC12CC3CC(CC(C3)C1)C2 (stereo not shown) ... 10.72
6. CC1(C)C2CCC(CNCCNC3CCCCCCC3)[C@@H]1C2 (stereo partly shown) ... 7.668
7. C[C@@H]1[C@H]2C[C@@H](C[C@H]1NCCNC1CCCCCCC1)C2(C)C ... 13.632
8. C[C@@H]1C2C[C@@H](C[C@H]1NCCNCC1CCC3C[C@@H]1C3(C)C)C2(C)C (stereo partly shown) ... 11.3
9. CCC1CCCCN1CCNC/C=C(\C)CCC=C(C)C (stereo not shown) ... 18.128

Problem: I'm curious: which LD50 was measured for "COc1ccccc1CCNCCN[C@@H]1C[C@@H]2CC([C@H]1C)C2(C)C" tested on cells?
Result: 18.45
